Run Conditions: in n-butanol, 283.15 K
Test Readout: solubility (mole fraction)
// return just the number, without any unit appended

Problem: Please look up its solubility (mole fraction): Cc1coc2c1C(=O)C(=O)c1c-2ccc2c(C)cccc12
Solution: 0.000636

---

Run Conditions: in ethylene glycol, 298.15 K
Test Readout: solubility (mole fraction)
// return just the number, without any unit appended

Problem: Please look up its solubility (mole fraction): Cc1coc2c1C(=O)C(=O)c1c-2ccc2c(C)cccc12
Solution: 0.000152

---

Run Conditions: in isopropanol, 308.15 K
Test Readout: solubility (mole fraction)
// return just the number, without any unit appended

Problem: Please look up its solubility (mole fraction): Cc1coc2c1C(=O)C(=O)c1c-2ccc2c(C)cccc12
Solution: 0.000729

---

Run Conditions: in DMF, 283.15 K
Test Readout: solubility (mole fraction)
// return just the number, without any unit appended

Problem: Please look up its solubility (mole fraction): Cc1coc2c1C(=O)C(=O)c1c-2ccc2c(C)cccc12
Solution: 0.00106

---

Run Conditions: in ethanol, 303.15 K
Test Readout: solubility (mole fraction)
// return just the number, without any unit appended

Problem: Please look up its solubility (mole fraction): Cc1coc2c1C(=O)C(=O)c1c-2ccc2c(C)cccc12
Solution: 0.000167

---

Run Conditions: in methanol, 313.15 K
Test Readout: solubility (mole fraction)

Problem: Please look up its solubility (mole fraction): Cc1coc2c1C(=O)C(=O)c1c-2ccc2c(C)cccc12
Solution: 0.00013

---

Run Conditions: in isopropanol, 298.15 K
Test Readout: solubility (mole fraction)
// return just the number, without any unit appended

Problem: Please look up its solubility (mole fraction): Cc1coc2c1C(=O)C(=O)c1c-2ccc2c(C)cccc12
Solution: 0.000535

---

Run Conditions: in isopropanol, 288.15 K
Test Readout: solubility (mole fraction)
// return just the number, without any unit appended

Problem: Please look up its solubility (mole fraction): Cc1coc2c1C(=O)C(=O)c1c-2ccc2c(C)cccc12
Solution: 0.000395

---

Run Conditions: in methanol, 323.15 K
Test Readout: solubility (mole fraction)
// return just the number, without any unit appended

Problem: Please look up its solubility (mole fraction): Cc1coc2c1C(=O)C(=O)c1c-2ccc2c(C)cccc12
Solution: 0.000182

---

Run Conditions: in methanol, 278.15 K
Test Readout: solubility (mole fraction)
// return just the number, without any unit appended

Problem: Please look up its solubility (mole fraction): Cc1coc2c1C(=O)C(=O)c1c-2ccc2c(C)cccc12
Solution: 5.56e-05

---

Run Conditions: in ethanol, 278.15 K
Test Readout: solubility (mole fraction)

Problem: Please look up its solubility (mole fraction): Cc1coc2c1C(=O)C(=O)c1c-2ccc2c(C)cccc12
Solution: 6.4e-05

---

Run Conditions: in DMF, 308.15 K
Test Readout: solubility (mole fraction)
// return just the number, without any unit appended

Problem: Please look up its solubility (mole fraction): Cc1coc2c1C(=O)C(=O)c1c-2ccc2c(C)cccc12
Solution: 0.0022

---

Run Conditions: in n-butanol, 303.15 K
Test Readout: solubility (mole fraction)
// return just the number, without any unit appended

Problem: Please look up its solubility (mole fraction): Cc1coc2c1C(=O)C(=O)c1c-2ccc2c(C)cccc12
Solution: 0.00103

---

Run Conditions: in n-propanol, 308.15 K
Test Readout: solubility (mole fraction)
// return just the number, without any unit appended

Problem: Please look up its solubility (mole fraction): Cc1coc2c1C(=O)C(=O)c1c-2ccc2c(C)cccc12
Solution: 0.000987

---

Run Conditions: in water, 308.15 K
Test Readout: solubility (mole fraction)
// return just the number, without any unit appended

Problem: Please look up its solubility (mole fraction): Cc1coc2c1C(=O)C(=O)c1c-2ccc2c(C)cccc12
Solution: 9.26e-08

---

Run Conditions: in methanol, 288.15 K
Test Readout: solubility (mole fraction)

Problem: Please look up its solubility (mole fraction): Cc1coc2c1C(=O)C(=O)c1c-2ccc2c(C)cccc12
Solution: 6.79e-05

---

Run Conditions: in ethanol, 318.15 K
Test Readout: solubility (mole fraction)
// return just the number, without any unit appended

Problem: Please look up its solubility (mole fraction): Cc1coc2c1C(=O)C(=O)c1c-2ccc2c(C)cccc12
Solution: 0.000275

---

Run Conditions: in n-propanol, 288.15 K
Test Readout: solubility (mole fraction)
// return just the number, without any unit appended

Problem: Please look up its solubility (mole fraction): Cc1coc2c1C(=O)C(=O)c1c-2ccc2c(C)cccc12
Solution: 0.000575

---

Run Conditions: in water, 323.15 K
Test Readout: solubility (mole fraction)
// return just the number, without any unit appended

Problem: Please look up its solubility (mole fraction): Cc1coc2c1C(=O)C(=O)c1c-2ccc2c(C)cccc12
Solution: 1.34e-07

---

Run Conditions: in isopropanol, 293.15 K
Test Readout: solubility (mole fraction)
// return just the number, without any unit appended

Problem: Please look up its solubility (mole fraction): Cc1coc2c1C(=O)C(=O)c1c-2ccc2c(C)cccc12
Solution: 0.000456

---

Run Conditions: in DMF, 278.15 K
Test Readout: solubility (mole fraction)

Problem: Please look up its solubility (mole fraction): Cc1coc2c1C(=O)C(=O)c1c-2ccc2c(C)cccc12
Solution: 0.000919

---

Run Conditions: in acetone, 318.15 K
Test Readout: solubility (mole fraction)
// return just the number, without any unit appended

Problem: Please look up its solubility (mole fraction): Cc1coc2c1C(=O)C(=O)c1c-2ccc2c(C)cccc12
Solution: 0.00324

---

Run Conditions: in water, 283.15 K
Test Readout: solubility (mole fraction)

Problem: Please look up its solubility (mole fraction): Cc1coc2c1C(=O)C(=O)c1c-2ccc2c(C)cccc12
Solution: 5.74e-08

---

Run Conditions: in ethylene glycol, 283.15 K
Test Readout: solubility (mole fraction)
// return just the number, without any unit appended

Problem: Please look up its solubility (mole fraction): Cc1coc2c1C(=O)C(=O)c1c-2ccc2c(C)cccc12
Solution: 9.79e-05

---

Run Conditions: in acetone, 283.15 K
Test Readout: solubility (mole fraction)
// return just the number, without any unit appended

Problem: Please look up its solubility (mole fraction): Cc1coc2c1C(=O)C(=O)c1c-2ccc2c(C)cccc12
Solution: 0.0012

---

Run Conditions: in acetone, 293.15 K
Test Readout: solubility (mole fraction)
// return just the number, without any unit appended

Problem: Please look up its solubility (mole fraction): Cc1coc2c1C(=O)C(=O)c1c-2ccc2c(C)cccc12
Solution: 0.00164

---

Run Conditions: in water, 293.15 K
Test Readout: solubility (mole fraction)

Problem: Please look up its solubility (mole fraction): Cc1coc2c1C(=O)C(=O)c1c-2ccc2c(C)cccc12
Solution: 6.81e-08

---

Run Conditions: in DMF, 298.15 K
Test Readout: solubility (mole fraction)
// return just the number, without any unit appended

Problem: Please look up its solubility (mole fraction): Cc1coc2c1C(=O)C(=O)c1c-2ccc2c(C)cccc12
Solution: 0.00169

---

Run Conditions: in acetone, 308.15 K
Test Readout: solubility (mole fraction)

Problem: Please look up its solubility (mole fraction): Cc1coc2c1C(=O)C(=O)c1c-2ccc2c(C)cccc12
Solution: 0.00253

---

Run Conditions: in ethanol, 283.15 K
Test Readout: solubility (mole fraction)
// return just the number, without any unit appended

Problem: Please look up its solubility (mole fraction): Cc1coc2c1C(=O)C(=O)c1c-2ccc2c(C)cccc12
Solution: 8.08e-05

---

Run Conditions: in n-butanol, 308.15 K
Test Readout: solubility (mole fraction)
// return just the number, without any unit appended

Problem: Please look up its solubility (mole fraction): Cc1coc2c1C(=O)C(=O)c1c-2ccc2c(C)cccc12
Solution: 0.00117

---

Run Conditions: in n-propanol, 313.15 K
Test Readout: solubility (mole fraction)
// return just the number, without any unit appended

Problem: Please look up its solubility (mole fraction): Cc1coc2c1C(=O)C(=O)c1c-2ccc2c(C)cccc12
Solution: 0.00113

---

Run Conditions: in ethanol, 293.15 K
Test Readout: solubility (mole fraction)
// return just the number, without any unit appended

Problem: Please look up its solubility (mole fraction): Cc1coc2c1C(=O)C(=O)c1c-2ccc2c(C)cccc12
Solution: 0.00012

---

Run Conditions: in acetone, 298.15 K
Test Readout: solubility (mole fraction)
// return just the number, without any unit appended

Problem: Please look up its solubility (mole fraction): Cc1coc2c1C(=O)C(=O)c1c-2ccc2c(C)cccc12
Solution: 0.00194

---

Run Conditions: in DMF, 293.15 K
Test Readout: solubility (mole fraction)
// return just the number, without any unit appended

Problem: Please look up its solubility (mole fraction): Cc1coc2c1C(=O)C(=O)c1c-2ccc2c(C)cccc12
Solution: 0.00146

---

Run Conditions: in DMF, 313.15 K
Test Readout: solubility (mole fraction)
// return just the number, without any unit appended

Problem: Please look up its solubility (mole fraction): Cc1coc2c1C(=O)C(=O)c1c-2ccc2c(C)cccc12
Solution: 0.00249
